biological target: S-adenosylmethionine decarboxylase proenzyme (Homo sapiens, UniProt P17707)
Sequence (P17707 1-67 limits assumed): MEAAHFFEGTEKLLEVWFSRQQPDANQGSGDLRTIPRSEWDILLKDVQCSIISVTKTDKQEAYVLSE
Sequence (P17707 68-334 limits assumed): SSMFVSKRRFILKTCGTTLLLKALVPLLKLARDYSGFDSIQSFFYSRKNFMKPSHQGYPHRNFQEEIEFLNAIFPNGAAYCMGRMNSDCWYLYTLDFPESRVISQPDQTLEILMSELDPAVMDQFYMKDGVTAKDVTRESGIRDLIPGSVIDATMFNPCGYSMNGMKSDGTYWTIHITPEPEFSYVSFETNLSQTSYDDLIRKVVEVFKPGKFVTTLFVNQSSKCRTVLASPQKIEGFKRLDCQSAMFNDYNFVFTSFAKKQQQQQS
READOUT_LABEL: IC50 (nM)
Give the value, in units of nM, as a plain number.

Report its IC50 with S-adenosylmethionine decarboxylase proenzyme (Homo sapiens, UniProt P17707) as the test system: CNc1nc2c(N)ncnc2n1[C@@H]1O[C@H](CN(C)CCCCON)[C@@H](O)[C@H]1O 49

// next entry
Please respond with reported IC50 (system S-adenosylmethionine decarboxylase proenzyme (Homo sapiens, UniProt P17707)) for Cc1nc2c(N)ncnc2n1[C@@H]1O[C@H](C[S+](C)C)[C@@H](O)[C@H]1O . 3000

The measurements presented in this section are drawn from ChEMBL document CHEMBL1140908.
